Attribution: patent US9776991B2

# Target System: recombinant sEH (soluble epoxide hydrolase, EPHX2) (Homo sapiens (Human))
# Sequence (P34913 whole entry): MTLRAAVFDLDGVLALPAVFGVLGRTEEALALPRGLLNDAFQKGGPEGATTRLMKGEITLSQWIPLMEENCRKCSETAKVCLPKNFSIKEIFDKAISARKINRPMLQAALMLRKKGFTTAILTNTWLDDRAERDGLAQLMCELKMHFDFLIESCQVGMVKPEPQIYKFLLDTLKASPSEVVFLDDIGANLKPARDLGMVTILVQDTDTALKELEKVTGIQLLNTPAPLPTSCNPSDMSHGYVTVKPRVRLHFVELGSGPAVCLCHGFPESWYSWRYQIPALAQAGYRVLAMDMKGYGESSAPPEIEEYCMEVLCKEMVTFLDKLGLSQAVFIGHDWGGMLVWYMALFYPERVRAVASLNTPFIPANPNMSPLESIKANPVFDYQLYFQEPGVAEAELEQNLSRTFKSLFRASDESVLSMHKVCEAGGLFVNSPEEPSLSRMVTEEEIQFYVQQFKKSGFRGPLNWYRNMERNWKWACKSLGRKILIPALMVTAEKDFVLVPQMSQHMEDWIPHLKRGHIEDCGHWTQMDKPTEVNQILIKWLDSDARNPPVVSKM
# Assay: biochemical fluorometric sEH inhibition assay with Phome substrate
# Condition Set: recombinant sEH purified from Sf9 insect cells, 2 nM sEH, 5 μM Phome, 60 minutes at 30° C.
Measured Parameter: IC50 (nM)

1. O=C(NCc1ccccc1OC(F)(F)F)c1ccc(CN2CCN(c3nccs3)C(=O)C2)s1	2.69
2. COC(C)(C)C(=O)N1CCN(Cc2ncc(C(=O)NCc3ccc(Cl)cc3Cl)s2)CC1	6.31
3. CN1CC(C(=O)N2CCN(Cc3ncc(C(=O)NCc4ccc(Cl)cc4Cl)s3)CC2)CC1=O (stereo not shown)	49.5
4. CC(C(=O)N1CCN(Cc2ccc(C(=O)NCc3ccccc3C(F)(F)F)s2)CC1)c1ccccc1 (stereo not shown)	1.52
5. O=C(NCc1ccc(Cl)cc1Cl)c1ccc(CN2CCN(C(=O)Cc3cccc(C(F)(F)F)c3)CC2)s1	2.3
6. CC[C@@H](O)C(=O)N1CCN(Cc2ncc(C(=O)NCc3ccc(Cl)cc3Cl)s2)CC1	24.1
7. O=C(NCc1ccccc1C(F)(F)F)c1ccc(CN2CCN(C(=O)C3Cc4ccccc43)CC2)s1 (stereo not shown)	0.528
8. O=C(NCc1ccc(Cl)cc1Cl)c1ccc(CN2CCN(C(=O)c3ccc(F)cc3Cl)CC2)s1	2.74
9. Cn1ncc(N2CCN(Cc3ccc(C(=O)NCc4ccc(Cl)cc4Cl)s3)CC2)cc1=O	2.15
10. CC(C(=O)N1CCN(Cc2ccc(C(=O)NCc3ccc(Cl)cc3Cl)s2)CC1)c1ccccc1 (stereo not shown)	1.21
11. NC(CF)C(=O)N1CCN(Cc2ccc(C(=O)NCc3ccccc3OC(F)(F)F)s2)CC1 (stereo not shown)	1.79
12. Cc1cc(=O)oc(C)c1C(=O)N1CCN(Cc2ccc(C(=O)NCc3ccc(Cl)cc3Cl)s2)CC1	1.15
13. COCCC(=O)N1CCN(Cc2ccc(C(=O)NCc3ccccc3OC(F)(F)F)s2)CC1	1.6
14. COCC(=O)N1CCN(Cc2ncc(C(=O)NCc3ccc(Cl)cc3Cl)s2)CC1	35.3
15. Cc1cc(=O)oc(C)c1C(=O)N1CCN(Cc2ccc(C(=O)NCCCn3nc(C(F)(F)F)cc3C)s2)CC1	2.95
16. CC(O)C(=O)N1CCN(Cc2ccc(C(=O)NCc3ccc(Cl)cc3Cl)s2)CC1 (stereo not shown)	0.539
17. Cc1ccc(C(=O)N2CCN(Cc3ccc(C(=O)NCc4ccccc4C(F)(F)F)s3)CC2)s1	2.07
18. O=C(NCc1ccc(Cl)cc1Cl)c1cnc(CN2CCN(C(=O)C3CC3)CC2)s1	15.8
19. O=C(NCc1ccc(Cl)cc1Cl)c1ccc(CN2CCN(C(=O)Cc3ccccc3Cl)CC2)s1	2.61
